Hey, just so you know, these numbers are from patent US20250277029A1.

# system: human cannabinoid receptor 1 (huCB1), full length, expressed on cells (human, UniProt P21554 1-472)
# Sequence (P21554 whole entry): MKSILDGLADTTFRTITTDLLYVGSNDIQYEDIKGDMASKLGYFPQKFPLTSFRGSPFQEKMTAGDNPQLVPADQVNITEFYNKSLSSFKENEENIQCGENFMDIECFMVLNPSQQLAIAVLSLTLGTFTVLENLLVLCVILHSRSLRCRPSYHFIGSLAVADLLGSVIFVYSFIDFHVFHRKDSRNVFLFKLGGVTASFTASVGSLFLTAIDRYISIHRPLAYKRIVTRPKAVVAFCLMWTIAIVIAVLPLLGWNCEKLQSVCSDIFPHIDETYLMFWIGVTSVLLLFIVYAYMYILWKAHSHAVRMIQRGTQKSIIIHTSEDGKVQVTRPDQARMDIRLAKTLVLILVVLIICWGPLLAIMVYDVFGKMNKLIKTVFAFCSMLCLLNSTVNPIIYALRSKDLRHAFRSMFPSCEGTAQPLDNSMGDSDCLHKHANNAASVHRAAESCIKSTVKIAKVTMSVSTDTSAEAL
# assay-method-text: cell-based or functional assay
Below: a set of entries, each annotated with reported n = 1 IC50, -fold vs Rimo.
Give a bare numeral; the unit fold vs Rimonabant is implied.

LIBC523862-1 (antibody, V domains shown) VH: QVQLQESGPGLVKPSQTLSLTCTVSGGSIRRGGDYWSWIRQHPGKGLEWIGHIYQTGSTAYNPSLKGRATISVNTYKNQFSLKLSSVTAADTAVYYCARDYDILTGYSYYYYGMDVWGQGTTVTVSS VL: DIVMTQSPLSLPVTPGEPASISCRSSQSLLHSTGANYVDWYLQKPGQSPQLLIYLGSNRASGVPDRFSGSGSGTDFTLKISRVEAEDVGVYYCRQAIALPRTFGQGTKVEIKR ... 2.66
LIBC527968-1 (antibody, V domains shown) VH: QVQLQESGPGLVKPSQTLSLTCTVSGGSIRRGGDYWSWIRQHPGKGLEWIGHIYQSGSTKYNPSFKDRATISVNTYKNQFSLKLSSVTAADTAVYYCARDYDILTGYSYYYYGMDVWGQGTTVTVSS VL: DIQLTQSPSTLSASVGDRVTITCRASQSISNYLNWYQQKPGKAPKLLIYAASSLHSGVPSRFSGSGSGTDFTLTISSLQPEDFASYYCQQYQSYPLTFGQGTKVEIKR ... 1.45

(Q) I have this binder here, LIBC523844-1 (antibody, V domains shown) VH: QVQLQESGPGLVKPSQTLSLTCTVSGGSIRRGGDYWSWIRQHPGKGLEWIGHVYYTGSTKYNPSFKDRATISVNTYKNQFSLKLSSVTAADTAVYYCARDYDILTGYSYYYYGMDVWGQGTTVTVSS VL: DIVMTQSPLSLPVTPGEPASISCRSSQSLLSSSGANYVDWYLQKPGQSPQLLIYQGSNRASGVPDRFSGSGSGTDFTLKISRVEAEDVGVYYCRQARALPRTFGQGTKVEIKR , and I need its recorded n = 1 IC50, -fold vs Rimo.
(A) 1.47
